- Target Or System: 1-phosphatidylinositol 4,5-bisphosphate phosphodiesterase gamma-1 (Homo sapiens) (UniProt P19174)
- Sequence (P19174 whole entry, looked up): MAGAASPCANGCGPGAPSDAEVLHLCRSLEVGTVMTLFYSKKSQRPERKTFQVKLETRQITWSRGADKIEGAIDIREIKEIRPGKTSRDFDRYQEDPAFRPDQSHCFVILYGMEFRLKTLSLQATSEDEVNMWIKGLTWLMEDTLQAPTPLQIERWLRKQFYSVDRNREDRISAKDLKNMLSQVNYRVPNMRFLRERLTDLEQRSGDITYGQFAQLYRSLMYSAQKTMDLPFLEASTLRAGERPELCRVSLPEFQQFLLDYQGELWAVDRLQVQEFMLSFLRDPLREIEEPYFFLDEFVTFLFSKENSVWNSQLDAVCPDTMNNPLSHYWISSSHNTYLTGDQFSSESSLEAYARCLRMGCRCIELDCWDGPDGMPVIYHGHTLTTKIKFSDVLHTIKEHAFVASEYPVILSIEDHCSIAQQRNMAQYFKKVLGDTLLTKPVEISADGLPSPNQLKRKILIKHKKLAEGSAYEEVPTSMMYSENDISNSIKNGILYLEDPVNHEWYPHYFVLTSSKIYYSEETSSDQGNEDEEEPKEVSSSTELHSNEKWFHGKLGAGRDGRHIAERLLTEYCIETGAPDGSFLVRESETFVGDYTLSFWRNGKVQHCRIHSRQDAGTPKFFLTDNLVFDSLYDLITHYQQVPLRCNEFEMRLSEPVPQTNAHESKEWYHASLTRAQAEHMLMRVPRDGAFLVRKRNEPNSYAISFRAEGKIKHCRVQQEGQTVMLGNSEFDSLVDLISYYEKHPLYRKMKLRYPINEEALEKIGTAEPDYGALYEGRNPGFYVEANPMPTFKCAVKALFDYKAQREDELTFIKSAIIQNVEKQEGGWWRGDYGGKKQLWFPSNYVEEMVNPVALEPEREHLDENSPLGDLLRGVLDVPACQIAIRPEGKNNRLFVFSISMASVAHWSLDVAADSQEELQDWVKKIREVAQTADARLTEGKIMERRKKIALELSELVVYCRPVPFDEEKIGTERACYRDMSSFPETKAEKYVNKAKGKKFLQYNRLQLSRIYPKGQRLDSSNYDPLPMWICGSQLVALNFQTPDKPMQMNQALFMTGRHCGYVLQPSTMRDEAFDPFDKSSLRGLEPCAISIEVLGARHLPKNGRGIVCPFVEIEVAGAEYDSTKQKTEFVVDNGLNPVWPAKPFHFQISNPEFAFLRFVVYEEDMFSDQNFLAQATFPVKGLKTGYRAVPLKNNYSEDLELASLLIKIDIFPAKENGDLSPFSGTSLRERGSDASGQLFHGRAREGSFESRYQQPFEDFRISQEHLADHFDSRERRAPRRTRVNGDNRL
- Protocol Notes: PLC-gamma1 enzyme inhibitors, counter-screen for PLC-beta3 inhibitor project, biochemical, fluorescence (AID 743258)
- Condition Notes: purified PLC-gamma1, fluorogenic substrate, at 12.3 µM, hits give high values
Among all 3,300 compounds or so, about 100 (3%) were called active. Only a sample is shown.
Measured Attribute: inhibition (%)
Numbers only, in %.

For each listed entry, give its inhibition.
1. O=C(O)c1ccc(Cn2c(=S)[nH]c3cc(Cl)ccc3c2=O)cc1
2. CC(C)(C)c1ccc(C(=O)Nc2cc(Cl)c(Br)cc2C(=O)O)cc1
3. CN(CC(=O)NC1CCCCC1)S(=O)(=O)c1ccc(Br)s1
4. CNC(=O)c1ccc(NC(=O)c2cccc(C(F)(F)F)c2)cc1
5. Cc1ccccc1C(=O)Nc1ccccc1Sc1ccccc1
6. Cc1nc2ccc(NC(=O)c3cccc(S(=O)(=O)N4CCOCC4)c3)cc2s1

[reply]
1: -7.72; 2: -7.48; 3: -5.25; 4: -6.45; 5: -2.19; 6: -12.2

# batch: return inhibition for each of the 2 compounds below
1. O=c1ccc2c(-c3ccccc3S(=O)(=O)O)c3ccc(O)c(O)c3oc-2c1O
2. O=C(NCc1cccnc1)c1cc(C2CCCCN2C(=O)CCc2ccccc2)on1 (stereo not given)

[reply]
[26.6, -6.35]

List reported inhibition for each of these compounds:
1. COc1ccc([N+](=O)[O-])cc1N(CC(O)Cn1nnc2ccccc21)S(=O)(=O)c1ccc(C)cc1 (stereo not given)
2. CCc1ccc(-c2nc(SCC(=O)NC3CCCC3)n[nH]2)cc1

[reply]
-0.66
-6.5

====

- Target Or System: 1-phosphatidylinositol 4,5-bisphosphate phosphodiesterase gamma-1 (Homo sapiens) (UniProt P19174)
- Protocol Notes: PLC-gamma1 enzyme inhibitors, counter-screen for PLC-beta3 inhibitor project, biochemical, fluorescence (AID 743258)
- Condition Notes: purified PLC-gamma1, fluorogenic substrate, at 12.3 µM, hits give high values
Among all 3,300 compounds or so, about 100 (3%) were called active. These entries were drawn from the full list.
I'd be grateful if you could share measured inhibition for these entries.

Nc1nc(NCC(=O)O)nc(N2CCCCCC2)c1[N+](=O)[O-]
0.65% (inactive)
O=C1/C(=C\c2ccsc2)NC(=S)N1c1ccccc1
-7.04% (inactive)
O=[N+]([O-])c1cc(C(F)(F)F)ccc1NN=C1CCCC1
8.96% (inactive)
O=C1CS(=O)CN1c1ccc(Oc2ccccc2)cc1 (stereo not given)
24.1% (active)

Looking up COc1ccc(/C=C2\N=C3CCCN3C2=O)cc1 , I found its inhibition recorded as -0.94% (inactive)

====

For each of the compounds below, state its inhibition.
- Target Or System: 1-phosphatidylinositol 4,5-bisphosphate phosphodiesterase gamma-1 (Homo sapiens) (UniProt P19174)
- Protocol Notes: PLC-gamma1 enzyme inhibitors, counter-screen for PLC-beta3 inhibitor project, biochemical, fluorescence (AID 743258)
- Condition Notes: purified PLC-gamma1, fluorogenic substrate, at 12.3 µM, hits give high values
About 100 (3%) of roughly 3,300 compounds were called active. Only a sample is shown.
One number for each entry, in %.

Batch request: inhibition for each of the following compounds.
1. O=C(CCNS(=O)(=O)c1ccc(Br)cc1)NCC1CCCO1 (stereo unspecified)
2. C=CCSC(CC)(CC)C(N)=O
3. O=C1NC2(CCCCC2)N=C1c1ccccc1
4. O=c1c([N+](=O)[O-])cc(C(F)(F)F)cn1Cc1cccc(Cl)c1

[reply]
[-3.55, 2, -5.81, 8.36]

Lab note: each compound below needs its inhibition filled in.
1. Cc1cccc(C(=O)NCCCN2CCCC2=O)c1
2. COC(=O)NC1(C(F)(F)F)NC(=O)N(C2CCCCC2)C1=O (stereo unspecified)
3. COc1ccc(C(N)c2csc(NC(=O)Nc3cccc(C(F)(F)F)c3)n2)cc1 (stereo unspecified)
4. Cc1ccc(-n2ncc3c2CC(C)(C)CC3NC(=O)CCc2cnn(C)c2)cc1 (stereo unspecified)
5. Cc1ccc(-c2cn(S(=O)(=O)c3cccc([N+](=O)[O-])c3)nc2N)cc1
6. O=C1c2ccccc2S(=O)(=O)N1CC(O)Cn1c2ccccc2c2ccccc21 (stereo unspecified)
7. Cc1c(C(=O)c2cccc([N+](=O)[O-])c2)c2ccccn2c1CCC#N

[reply]
1. -4.45
2. -2.81
3. -0.69
4. -2.59
5. -5.96
6. 2.37
7. -0.24
